METHOD_NOTES: Cmax in Sprague-Dawley rat at 3 ml/kg,po measured upto 24 hrs by UPLC-MS/MS analysis
Assay type: ADME
Set-up: dose 3 ml/kg, time < 24 hrs, route po
COND: in vivo, 24 h
Classification field. Basis: Cmax. Definitions: bucket A: < 200 nM; bucket B: ≥ 200 nM and < 800 nM; bucket C: ≥ 800 nM

Task: In plain terms, what class is COC(=O)N[C@H](C(=O)N[C@@H](Cc1ccccc1)[C@H](CN(Cc1ccc(-c2ccccn2)cc1)NC(=O)[C@@H](NC(=O)OC)C(C)(C)C)OC(=O)OC(OC(=O)[C@@H](N)C(C)C)C(C)(C)C)C(C)(C)C (stereo in doubt; 4m) ?
Result: bucket A

Task: Bin this entry: CCC(C)C(OC(=O)O[C@@H](CN(Cc1ccc(-c2ccccn2)cc1)NC(=O)[C@@H](NC(=O)OC)C(C)(C)C)[C@H](Cc1ccccc1)NC(=O)[C@@H](NC(=O)OC)C(C)(C)C)OC(=O)[C@@H](N)C(C)C (stereo in doubt; 4k)
Result: bucket C

Task: Please let me know in which category the item COC(=O)N[C@H](C(=O)N[C@@H](Cc1ccccc1)[C@H](CN(Cc1ccc(-c2ccccn2)cc1)NC(=O)[C@@H](NC(=O)OC)C(C)(C)C)OC(=O)OC(OC(=O)[C@H](C(C)C)N(C)C)C(C)C)C(C)(C)C (stereo in doubt; 5h) belongs.
Result: bucket C

Task: State the band of COC(=O)N[C@H](C(=O)N[C@@H](Cc1ccccc1)[C@H](CN(Cc1ccc(-c2ccccn2)cc1)NC(=O)[C@@H](NC(=O)OC)C(C)(C)C)OC(=O)OC(OC(=O)[C@@H](N)C(C)C)C(C)(C)C)C(C)(C)C (mixture of isomers)
Result: bucket B

Task: GET /class?item= COC(=O)N[C@H](C(=O)N[C@@H](Cc1ccccc1)[C@H](CN(Cc1ccc(-c2ccccn2)cc1)NC(=O)[C@@H](NC(=O)OC)C(C)(C)C)OC(=O)OC(OC(=O)[C@H](C)N)C(C)C)C(C)(C)C (stereo in doubt; 3p)
Result: bucket A

Task: Quick check: band for COC(=O)N[C@H](C(=O)N[C@@H](Cc1ccccc1)[C@H](CN(Cc1ccc(-c2ccccn2)cc1)NC(=O)[C@@H](NC(=O)OC)C(C)(C)C)OC(=O)OC(OC(=O)[C@H](C)N)C(C)C)C(C)(C)C (stereo in doubt; 3q)
Result: bucket C

Task: Band for the recorded Cmax of COC(=O)N[C@H](C(=O)N[C@@H](Cc1ccccc1)[C@H](CN(Cc1ccc(-c2ccccn2)cc1)NC(=O)[C@@H](NC(=O)OC)C(C)(C)C)OC(=O)OC(OC(=O)[C@@H](NC(=O)[C@@H](N)C(C)C)C(C)C)C(C)C)C(C)(C)C (stereo in doubt; 6e) ?
Result: bucket A

====

METHOD_NOTES: Ratio of Cmax/Cmin of Atazanavir in Sprague-Dawley rat at 3 ml/kg,po measured after 24 hrs by UPLC-MS/MS analysis
Format: ADME
COND: in vivo
The label depends only on Ratio: class 1 if it is at least 800, class 0 if it is smaller.

Would you please look over these solved cases?
[
  {
    "MOLECULE": "COC(=O)N[C@H](C(=O)N[C@@H](Cc1ccccc1)[C@H](CN(Cc1ccc(-c2ccccn2)cc1)NC(=O)[C@@H](NC(=O)OC)C(C)(C)C)OC(=O)OC(OC(=O)[C@@H](NC(=O)[C@@H](N)C(C)C)C(C)C)C(C)C)C(C)(C)C (stereo in doubt; 6e)",
    "LABEL_VALUE": "class 1"
  },
  {
    "MOLECULE": "CN[C@H](C(=O)OC(OC(=O)O[C@@H](CN(Cc1ccc(-c2ccccn2)cc1)NC(=O)[C@@H](NC(=O)OC)C(C)(C)C)[C@H](Cc1ccccc1)NC(=O)[C@@H](NC(=O)OC)C(C)(C)C)C(C)C)C(C)C (stereo in doubt; 5f)",
    "LABEL_VALUE": "class 0"
  },
  {
    "MOLECULE": "COC(=O)N[C@H](C(=O)N[C@@H](Cc1ccccc1)[C@H](CN(Cc1ccc(-c2ccccn2)cc1)NC(=O)[C@@H](NC(=O)OC)C(C)(C)C)OC(=O)OC(OC(=O)[C@@H](N)C(C)C)C(C)C)C(C)(C)C (stereo in doubt; 3s)",
    "LABEL_VALUE": "class 0"
  },
  {
    "MOLECULE": "COC(=O)N[C@H](C(=O)N[C@@H](Cc1ccccc1)[C@H](CN(Cc1ccc(-c2ccccn2)cc1)NC(=O)[C@@H](NC(=O)OC)C(C)(C)C)OC(=O)OC(OC(=O)[C@H](N)C(C)C)C(C)C)C(C)(C)C (stereo in doubt; 5i)",
    "LABEL_VALUE": "class 0"
  }
]

Task: Has COC(=O)N[C@H](C(=O)N[C@@H](Cc1ccccc1)[C@H](CN(Cc1ccc(-c2ccccn2)cc1)NC(=O)[C@@H](NC(=O)OC)C(C)(C)C)OC(=O)OC(OC(=O)[C@@H](N)C(C)C)C(C)C)C(C)(C)C (stereo in doubt; 3r) a recorded Ratio greater than or equal to 800?
Result: class 0

Task: Check this molecule for Ratio at or above 800: COC(=O)N[C@H](C(=O)N[C@@H](Cc1ccccc1)[C@H](CN(Cc1ccc(-c2ccccn2)cc1)NC(=O)[C@@H](NC(=O)OC)C(C)(C)C)OC(=O)OC(OC(=O)C1(N)CC1)C(C)C)C(C)(C)C (stereo in doubt; 3y)
Result: class 0

Task: State whether the measured Ratio reaches 800, counting equality as reaching it, for COC(=O)N[C@H](C(=O)N[C@@H](Cc1ccccc1)[C@H](CN(Cc1ccc(-c2ccccn2)cc1)NC(=O)[C@@H](NC(=O)OC)C(C)(C)C)OC(=O)OC(OC(=O)[C@@H](NC(=O)[C@@H](N)C(C)C)C(C)C)C(C)C)C(C)(C)C (stereo in doubt; 6f)
Result: class 1

====

METHOD_NOTES: Aqueous stability of the compound in acetate buffer at pH 4 assessed as compound half life measured after 24 hrs by UPLC analysis
Type: physicochemical
COND: buffer, pH 4, 24 h, 24 h
ENDPOINT_NAME: t1/2 (h)
// units = h; emit number, no label

Memo: COC(=O)N[C@H](C(=O)N[C@@H](Cc1ccccc1)[C@H](CN(Cc1ccc(-c2ccccn2)cc1)NC(=O)[C@@H](NC(=O)OC)C(C)(C)C)OC(=O)OC(OC(=O)[C@@H](N)Cc1ccccc1)C(C)C)C(C)(C)C (stereo in doubt; 3w) , reported t1/2: 158.4

get_value(item= CCC(C)C(OC(=O)O[C@@H](CN(Cc1ccc(-c2ccccn2)cc1)NC(=O)[C@@H](NC(=O)OC)C(C)(C)C)[C@H](Cc1ccccc1)NC(=O)[C@@H](NC(=O)OC)C(C)(C)C)OC(=O)[C@@H](N)C(C)C (stereo in doubt; 4k) , readout=t1/2) returns 334.4

Measured t1/2, COC(=O)N[C@H](C(=O)N[C@@H](Cc1ccccc1)[C@H](CN(Cc1ccc(-c2ccccn2)cc1)NC(=O)[C@@H](NC(=O)OC)C(C)(C)C)OC(=O)OC(OC(=O)[C@@H](N)CC(C)C)C(C)C)C(C)(C)C (stereo in doubt; 3t) : 136.8

Kindly note the recorded t1/2 for COC(=O)N[C@H](C(=O)N[C@@H](Cc1ccccc1)[C@H](CN(Cc1ccc(-c2ccccn2)cc1)NC(=O)[C@@H](NC(=O)OC)C(C)(C)C)OC(=O)OC(OC(=O)[C@H](C)N)C(C)C)C(C)(C)C (stereo in doubt; 3q) , which is 30.4

====

METHOD_NOTES: Aqueous solubility of compound at pH 4 by UPLC analysis
Assay type: physicochemical
COND: buffer
# Lookup of reported solubility keyed by entry

Example entries begin here.
[
  {
    "COMPOUND": "CN[C@H](C(=O)OC(OC(=O)O[C@@H](CN(Cc1ccc(-c2ccccn2)cc1)NC(=O)[C@@H](NC(=O)OC)C(C)(C)C)[C@H](Cc1ccccc1)NC(=O)[C@@H](NC(=O)OC)C(C)(C)C)C(C)C)C(C)C (stereo in doubt; 5f)",
    "solubility": "> 1900 µg/mL"
  },
  {
    "COMPOUND": "COC(=O)N[C@H](C(=O)N[C@@H](Cc1ccccc1)[C@H](CN(Cc1ccc(-c2ccccn2)cc1)NC(=O)[C@@H](NC(=O)OC)C(C)(C)C)OC(=O)OC(OC(=O)[C@@H](N)C(C)C)C1CCCCC1)C(C)(C)C (stereo in doubt; 4o)",
    "solubility": "> 1100 µg/mL"
  },
  {
    "COMPOUND": "COC(=O)N[C@H](C(=O)N[C@@H](Cc1ccccc1)[C@H](CN(Cc1ccc(-c2ccccn2)cc1)NC(=O)[C@@H](NC(=O)OC)C(C)(C)C)OC(=O)OC(OC(=O)[C@H](N)C(C)C)C(C)C)C(C)(C)C (stereo in doubt; 5j)",
    "solubility": "> 1900 µg/mL"
  },
  {
    "COMPOUND": "COC(=O)N[C@H](C(=O)N[C@@H](Cc1ccccc1)[C@H](CN(Cc1ccc(-c2ccccn2)cc1)NC(=O)[C@@H](NC(=O)OC)C(C)(C)C)OC(=O)OC(OC(=O)[C@@H](N)C(C)C)C(C)C)C(C)(C)C (stereo in doubt; 3s)",
    "solubility": "> 2300 µg/mL"
  },
  {
    "COMPOUND": "COC(=O)N[C@H](C(=O)N[C@@H](Cc1ccccc1)[C@H](CN(Cc1ccc(-c2ccccn2)cc1)NC(=O)[C@@H](NC(=O)OC)C(C)(C)C)OC(=O)OC(OC(=O)CCN)C(C)C)C(C)(C)C (stereo in doubt; 3aa)",
    "solubility": "> 2200 µg/mL"
  },
  {
    "COMPOUND": "CCC(C)C(OC(=O)O[C@@H](CN(Cc1ccc(-c2ccccn2)cc1)NC(=O)[C@@H](NC(=O)OC)C(C)(C)C)[C@H](Cc1ccccc1)NC(=O)[C@@H](NC(=O)OC)C(C)(C)C)OC(=O)[C@@H](N)C(C)C (stereo in doubt; 4k)",
    "solubility": "> 2600 µg/mL"
  },
  {
    "COMPOUND": "COC(=O)N[C@H](C(=O)N[C@@H](Cc1ccccc1)[C@H](CN(Cc1ccc(-c2ccccn2)cc1)NC(=O)[C@@H](NC(=O)OC)C(C)(C)C)OC(=O)OC(OC(=O)C1(N)CC1)C(C)C)C(C)(C)C (stereo in doubt; 3y)",
    "solubility": "> 2100 µg/mL"
  },
  {
    "COMPOUND": "COC(=O)N[C@H](C(=O)N[C@@H](Cc1ccccc1)[C@H](CN(Cc1ccc(-c2ccccn2)cc1)NC(=O)[C@@H](NC(=O)OC)C(C)(C)C)OC(=O)OC(OC(=O)C1(N)CC1)C(C)C)C(C)(C)C (stereo in doubt; 3x)",
    "solubility": "> 950 µg/mL"
  }
]

response.value for COC(=O)N[C@H](C(=O)N[C@@H](Cc1ccccc1)[C@H](CN(Cc1ccc(-c2ccccn2)cc1)NC(=O)[C@@H](NC(=O)OC)C(C)(C)C)OC(=O)OC(OC(=O)[C@@H](NC(=O)[C@H](N)C(C)C)C(C)C)C(C)C)C(C)(C)C (stereo in doubt; 6h) (field: solubility) = > 1300 µg/mL

solubility reading for COC(=O)N[C@H](C(=O)N[C@@H](Cc1ccccc1)[C@H](CN(Cc1ccc(-c2ccccn2)cc1)NC(=O)[C@@H](NC(=O)OC)C(C)(C)C)OC(=O)OC(OC(=O)[C@@H](N)C(C)C)C(C)(C)C)C(C)(C)C (stereo in doubt; 4m) : > 1000 µg/mL

The reported value for COC(=O)N[C@H](C(=O)N[C@@H](Cc1ccccc1)[C@H](CN(Cc1ccc(-c2ccccn2)cc1)NC(=O)[C@@H](NC(=O)OC)C(C)(C)C)OC(=O)OC(OC(=O)C[C@H](N)Cc1cc(F)c(F)cc1F)C(C)C)C(C)(C)C (stereo in doubt; 3ac) in terms of solubility is 960 µg/mL

solubility in this record for COC(=O)N[C@H](C(=O)N[C@@H](Cc1ccccc1)[C@H](CN(Cc1ccc(-c2ccccn2)cc1)NC(=O)[C@@H](NC(=O)OC)C(C)(C)C)OC(=O)OC(OC(=O)[C@H](C)N)C(C)C)C(C)(C)C (stereo in doubt; 3q) : > 1800 µg/mL
